Biological target: rat TRPV2 (rTRPV2-eGFP) (Rattus norvegicus)
Sequence (Q9WUD2 1-761): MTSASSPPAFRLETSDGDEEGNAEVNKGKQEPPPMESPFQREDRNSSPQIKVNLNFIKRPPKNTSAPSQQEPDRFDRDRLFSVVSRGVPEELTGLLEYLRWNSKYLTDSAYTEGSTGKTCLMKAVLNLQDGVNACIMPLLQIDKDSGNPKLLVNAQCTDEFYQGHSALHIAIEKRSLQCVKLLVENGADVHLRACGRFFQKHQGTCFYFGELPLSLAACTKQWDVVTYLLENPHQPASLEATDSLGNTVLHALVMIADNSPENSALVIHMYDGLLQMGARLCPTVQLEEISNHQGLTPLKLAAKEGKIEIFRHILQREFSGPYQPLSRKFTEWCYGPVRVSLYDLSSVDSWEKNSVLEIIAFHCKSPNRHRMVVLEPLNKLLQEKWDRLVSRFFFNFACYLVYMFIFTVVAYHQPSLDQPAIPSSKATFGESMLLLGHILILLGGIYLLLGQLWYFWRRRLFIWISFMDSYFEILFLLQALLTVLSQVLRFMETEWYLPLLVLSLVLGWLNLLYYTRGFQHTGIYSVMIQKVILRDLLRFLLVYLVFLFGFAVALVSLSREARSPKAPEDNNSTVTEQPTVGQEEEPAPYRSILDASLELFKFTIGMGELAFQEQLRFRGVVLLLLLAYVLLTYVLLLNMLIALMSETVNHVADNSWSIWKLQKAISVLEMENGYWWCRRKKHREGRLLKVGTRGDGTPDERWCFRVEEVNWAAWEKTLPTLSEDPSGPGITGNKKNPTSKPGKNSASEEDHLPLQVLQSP
Type: biochemical
Details: EC50 (Bayesian, 90% confidence interval in brackets), TRPV2-GFP vesicles, no inhibitor
endpoint: pEC50
pEC50 is defined as minus the log10 of a concentration measured in mol/L.

Supply reported pEC50 belonging to this compound: C=C(C)[C@@H]1CCC(C)=C[C@H]1c1c(O)cc(CCCCC)cc1O
3.96
